Ref: PubChem BioAssay (NCI)

MEASUREMENT PROTOCOL: NCI Yeast Anticancer Drug Screen. Data for the sgs1 strain (AID 173)
COND: S. cerevisiae sgs1 mutant, at 33.0 µM
The panel holds about 79,000 compounds, 15% with a hit somewhere; the sample as a whole holds those more often. Calls of active or inactive are those of the source. No stated cut-off is given here; in the data, active means growth inhibition above about 70%; inactive means the rest.
Reply using exactly one outcome from active, inactive

Illustrative cases are given below, each with its answer.
INSERT INTO assay_data (compound, class_name) VALUES
  ('CCCCCCCCCCCCCCCCCCN(C)CC(COP(=O)([O-])OCC[N+](C)(C)C)OC (stereo not given)', 'active'),
  ('C[C@@H]1C[C@H]2[C@@H]3CCC4=CC(=O)C=C[C@]4(C)[C@@]3(Cl)[C@@H](Cl)C[C@]2(C)[C@@]1(O)C(=O)COP(=O)(O)O', 'inactive'),
  ('CC(C)c1cc(C(C)C)c(O)c(C([O-])[O-])c1.CC(C)c1cc(C(C)C)c(O)c(C([O-])[O-])c1.CC(C)c1cc(C(C)C)c(O)c(C([OH2+])[OH2+])c1.CC(C)c1cc(C(C)C)c(O)c(C([OH2+])[OH2+])c1.[Cu+2].[Cu+2].[OH3+].[OH3+]', 'active');

Hi, sorry to bother you, what did the test record for CCN(CC)C(=S)N/N=C(/C)c1cccc(/C(C)=N\NC(=S)N(CC)CC)n1 ?
inactive

Could you please tell me the result logged for O=C1c2cc([N+](=O)[O-])ccc2-c2cccc(F)c21 in this assay?
inactive

* * *

MEASUREMENT PROTOCOL: NCI Yeast Anticancer Drug Screen. Data for the rad50 strain (AID 155)
COND: S. cerevisiae rad50 strain growth inhibition; at 50.0 µM
The panel holds about 79,000 compounds, 15% with a hit somewhere; the sample as a whole holds those more often. Active and inactive are the calls of the source. Cut-off read from the data, not from the text of the source: active = growth inhibition above about 70%; inactive = the rest.
Parameter call: string, one of active, inactive

Please review the entries below; each comes with its answer.
INSERT INTO measurements (compound, class_name) VALUES
  ('COc1ccc2sc3cccc(NCCN(C)C)c3c(=O)c2c1', 'inactive'),
  ('CCC(C(=O)O)C1=C(c2ccccc2)CCc2ccccc21 (stereo unspecified)', 'active'),
  ('CCOC(=O)C(NC(=O)c1ccccc1)(N1CCN(c2cc3c(cc2F)c(=O)c(C(=O)O)cn3C2CC2)CC1)C(F)(F)F (stereo unspecified)', 'active'),
  ('O=[N+]([O-])c1ccc2c(c1)C(N1CCN(CCO)CC1)Cc1ccc(F)cc1S2 (stereo unspecified)', 'inactive'),
  ('Cc1c(C(=O)C(=O)c2ccccc2)c(C)c(C(=O)C(=O)c2ccccc2)c(C)c1C(=O)C(=O)c1ccccc1', 'inactive');

Recorded test outcome, item c1ccc2c(c1)NC(NC1Nc3ccccc3N1)N2
inactive

Can you look up the reported call for Cc1ccc2ccc(O)cc2c1 for me?
inactive

Dear all, I need the recorded test outcome for O=C(CC(=O)n1nc(-c2ccccc2)c(N=Nc2ccccc2C(=O)O)c1-c1ccccc1)Nc1ccc(Cl)cc1 , thank you.
inactive

Please let me know the test result on file for CCNc1nnc(CSc2nc(-c3ccccc3)c(-c3ccccc3)[nH]2)s1 .
active

Could you kindly confirm the outcome this assay logged for OC1CCCc2c1cc1ccc3cccc4ccc2c1c34 (stereo unspecified) ?
active

Would you mind telling me which call this test gave CC(C)[N+]([O-])(CCCNc1c2ccccc2nc2cccc([N+](=O)[O-])c12)C(C)C ?
active

Test call for this compound, please: Cn1ccnc1Oc1ccc(Cl)cc1
active

Test call for this compound, please: CC(=O)Oc1cc(-c2cc(OC(C)=O)c(OC(C)=O)c3ccccc23)c2ccccc2c1OC(C)=O
active

Hi team, can someone confirm the assay call for C(=C\c1ccccc1)/COc1ccccc1C(N1CCOCC1)n1nc2ccccc2n1 (stereo unspecified) ?
active
